Experiment: HEK-293 Cancer Cell Toxicity qHTS against the NCATS CANVASS Library (AID 1347355); also: nearly all actives have a fitted effect of over 65% in size
Conditions: HEK-293 viability, CellTiter-Glo luminescence, 72 h; series mostly up to 46.1 µM
Inconclusive results are not listed. Activity calls are given as the source filed them. Calls follow the shape of the dose curve; as a rule, active = well fitted cell-killing curve with a large enough effect; inconclusive = small, poorly fitted or top-dose-only effect; inactive = flat fitted curve, though single readings scatter.
Bench note: report the call from 1 for active, 0 for inactive

Answered cases to consult:
Asked: Given C[C@@H]1O[C@@H](Oc2c(-c3ccc(O)cc3)oc3cc(O)cc(O)c3c2=O)[C@H](O)[C@H](O)[C@H]1O , state the outcome it received in this test.
Given back: 0

Asked: Name the outcome recorded for O=C(O)Cc1c[nH]c2ccccc12 in the assay.
Given back: 0

Asked: Called result for CC(O)/C=C/C1(O)C(C)(C)CC(O)CC1(C)O (stereo not given)
Given back: 0

Asked: Look up the recorded call for COc1ccc([C@@H]2c3cc(OC)c(OC)cc3C(=O)C(C)C2C)cc1OC (stereo not given in full) in this test.
Given back: 0

Asked: Tell me the recorded outcome of this test for Oc1ccc(/C=C2/c3cc(O)cc(O)c3C(c3ccc(O)cc3)[C@H]2c2cc(O)cc(O)c2)cc1 (stereo not given in full) .
Given back: 0

Asked: Outcome? C[C@@H]1C(=O)[C@]23CC[C@H]1C[C@]21O[C@H]2C(C)(C)C=CC(=O)[C@@]23COC1=O
Given back: 0

Asked: Look up the recorded call for COc1c(O)cc2oc(-c3ccccc3)cc(=O)c2c1O in this test.
Given back: 0

Asked: Look up the recorded call for CN1CC[C@]2(c3cccc4c3N[C@@H]3N(C)CC[C@]43[C@@]34CCN(C)[C@@H]3Nc3ccccc34)c3ccccc3N[C@H]12 in this test.
Given back: 1

Asked: Please state the recorded outcome for this compound: O=Cc1ccc2n1C[C@@]1(C[C@H](O)[C@H](O)CO1)OC2
Given back: 0

Attention now shifts to the item below.
Asked: What was the test verdict on C=C1C(=O)O[C@H]2[C@H]1CC/C(CO)=C\CC[C@@]1(C)O[C@@H]21 ?
Given back: 1
